molecular target: MAGI2_3, Q86UL8; test: holdup assay; design: key: below the threshold = too weak to quantify, mostly under pKd 3.1 to 4; details: plain residues with an end cap or a label only (N-terminal biotin on a linker: ttds)
Sequence (Q86UL8 600-682): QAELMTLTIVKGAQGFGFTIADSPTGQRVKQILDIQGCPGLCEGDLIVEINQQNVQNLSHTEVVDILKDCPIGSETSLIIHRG
Assay metric: pKd

[[record]]
binder = "RTRQRNETQV [HPV51-E6, P26554]"
reading = 4.02

[[record]]
binder = "SEKHFRETEV [HTLV1-TAX1, P03409]"
reading = 4.3

[[record]]
binder = "HIVEALETDV [PBK, Q96KB5]"
reading = 3.93

[[record]]
binder = "LCALPKVTTV [AGMAT, Q9BSE5]"
reading = 4.4


Measured values drawn from paper PMC9482650 for this set.
